Values from patent US7741327B2

Kindly supply the reported SC1.5 (concentration of activator that produced a 50% increase in the activity of GK) values for the records listed here.
Target: Recombinant human liver GK1 (GST-GK) (Homo sapiens)
Construct: made in house; host or cells: E. coli
Test: In vitro glucokinase activity (G6PDH-coupled NADH assay)
Format: biochemical
Conditions: 30° C., 5 mM D-glucose, 10% DMSO
Note: a bare number is incomplete; add the unit.

The molecule CC(C)(O)Cn1ccc(NC(=O)[C@H](CC2CCCCC2)N2CC(Oc3ccccc3Cl)=CC2=O)n1 [Example 61] showed SC1.5 (concentration of activator that produced a 50% increase in the activity of GK) equal to 0.006 µM

The molecule COC1=CC(=O)N([C@@H](CC2CCCC2)C(=O)Nc2ccn(C)n2)C1 [Example 6] showed SC1.5 (concentration of activator that produced a 50% increase in the activity of GK) equal to 12.645 µM

The molecule C=Cc1cccc(OC2=CC(=O)N([C@@H](CC(C)C)C(=O)Nc3ccn(C[C@@H]4COC(C)(C)O4)n3)C2)c1F [Example 144] showed SC1.5 (concentration of activator that produced a 50% increase in the activity of GK) equal to 0.251 µM

The molecule COc1cccc(OC2=CC(=O)N(C(CC3CCOCC3)C(=O)Nc3ccn(CC(C)(C)O)n3)C2)c1Cl (stereo not shown) [Example 50] showed SC1.5 (concentration of activator that produced a 50% increase in the activity of GK) equal to 0.033 µM

---

Molecular target: Recombinant human liver GK1 (GST-GK) (Homo sapiens)
Construct: made in house; host or cells: E. coli
Sequence (P35557 1-466 isoform P35557-2): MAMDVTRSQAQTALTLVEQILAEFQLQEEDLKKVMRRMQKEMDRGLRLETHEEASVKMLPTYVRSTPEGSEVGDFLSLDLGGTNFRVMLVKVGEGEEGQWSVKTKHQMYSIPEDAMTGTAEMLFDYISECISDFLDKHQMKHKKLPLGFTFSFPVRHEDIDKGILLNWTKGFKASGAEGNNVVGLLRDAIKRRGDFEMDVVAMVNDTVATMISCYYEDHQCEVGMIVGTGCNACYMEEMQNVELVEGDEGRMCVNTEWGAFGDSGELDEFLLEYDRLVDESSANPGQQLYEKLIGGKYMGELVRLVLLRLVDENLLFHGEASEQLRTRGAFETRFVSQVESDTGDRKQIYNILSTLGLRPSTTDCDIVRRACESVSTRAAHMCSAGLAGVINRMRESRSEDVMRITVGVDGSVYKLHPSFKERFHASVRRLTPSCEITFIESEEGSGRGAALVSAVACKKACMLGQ
Assay: In vitro glucokinase activity (G6PDH-coupled NADH assay)
Assay type: biochemical
Conditions: 30° C., 5 mM D-glucose, 10% DMSO
Endpoint: SC1.5 (concentration of activator that produced a 50% increase in the activity of GK) (µM)
// note: answer is a bare numeric in µM

The compound CC[C@@H](C)CC(C(=O)Nc1ccn(C[C@@H](O)CO)n1)N1CC(Oc2ccccc2Cl)=CC1=O (stereo partly shown) showed SC1.5 (concentration of activator that produced a 50% increase in the activity of GK) equal to 0.113

The compound `C=Cc1cccc(OC2=CC(=O)N([C@@H](CC(C)C)C(=O)Nc3ccn(C[C@@H](O)CO)n3)C2)c1F` showed SC1.5 (concentration of activator that produced a 50% increase in the activity of GK) equal to 0.134

The compound `CC(C)C[C@@H](C(=O)Nc1ccn(CC(N)=O)n1)N1CC(Oc2cccc(C3CC3)c2F)=CC1=O` showed SC1.5 (concentration of activator that produced a 50% increase in the activity of GK) equal to 0.406

The compound `CC(C)OC1=CC(=O)N([C@@H](CC2CCCCC2)C(=O)Nc2ccn(CC(C)(C)O)n2)C1` showed SC1.5 (concentration of activator that produced a 50% increase in the activity of GK) equal to 1.872

The compound `CC(C)C[C@@H](C(=O)Nc1cnccn1)N1CC(Oc2ccc(C[C@H](O)CO)cc2)=CC1=O` showed SC1.5 (concentration of activator that produced a 50% increase in the activity of GK) equal to 0.158

The compound `COC(C)(C)Cn1ccc(NC(=O)[C@H](CC2CCCC2)N2CC(OC(C)C)=CC2=O)n1` showed SC1.5 (concentration of activator that produced a 50% increase in the activity of GK) equal to 1.048

The compound `CCCOC1=CC(=O)N([C@@H](CC2CCCCC2)C(=O)Nc2ccn(CC(C)(C)O)n2)C1` showed SC1.5 (concentration of activator that produced a 50% increase in the activity of GK) equal to 5.251

---

Molecular target: Recombinant human liver GK1 (GST-GK) (Homo sapiens, UniProt P35557)
Construct: made in house; host or cells: E. coli
Sequence (P35557 1-466 isoform P35557-2): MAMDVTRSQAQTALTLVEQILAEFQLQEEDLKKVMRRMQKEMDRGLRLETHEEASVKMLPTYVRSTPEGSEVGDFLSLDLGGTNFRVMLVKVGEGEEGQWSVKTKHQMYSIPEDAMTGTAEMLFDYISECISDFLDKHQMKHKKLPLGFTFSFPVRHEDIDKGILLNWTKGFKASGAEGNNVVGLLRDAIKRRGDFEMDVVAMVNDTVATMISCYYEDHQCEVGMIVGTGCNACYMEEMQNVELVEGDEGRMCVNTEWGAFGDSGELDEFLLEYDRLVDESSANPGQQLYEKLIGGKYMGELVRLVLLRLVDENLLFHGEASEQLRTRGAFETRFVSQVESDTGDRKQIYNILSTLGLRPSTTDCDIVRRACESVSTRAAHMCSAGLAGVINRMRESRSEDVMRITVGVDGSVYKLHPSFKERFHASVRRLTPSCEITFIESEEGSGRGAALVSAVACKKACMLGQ
Assay: In vitro glucokinase activity (G6PDH-coupled NADH assay)
Assay type: biochemical
Conditions: 30° C., 5 mM D-glucose, 10% DMSO
Classify by SC1.5 (concentration of activator that produced a 50% increase in the activity of GK). Ranges: lower range (below 0.06 µM), middle range (0.06 µM to below 0.6 µM), upper range (0.6 µM or more)

Which class does `CC1(C)OC[C@@H](Cn2ccc(NC(=O)[C@H](Cc3ccccc3F)N3CC(Oc4ccccc4Cl)=CC3=O)n2)O1` fall in?
middle range

Which class does `CCOc1cccc(OC2=CC(=O)N([C@@H](CC(C)C)C(=O)Nc3ccn(CC(C)(C)O)n3)C2)c1F` fall in?
lower range

Which class does `CC(C)C[C@@H](C(=O)Nc1ccn(C[C@@H](O)CO)n1)N1CC(Oc2c(F)ccc(OC(C)C)c2F)=CC1=O` fall in?
middle range

Which class does `CC(C)C[C@@H](C(=O)Nc1ncc(Cl)s1)N1CC(Oc2ccccc2Cl)=CC1=O` fall in?
upper range

Which class does `CCOc1ccc(F)c(OC2=CC(=O)N([C@@H](CC(C)C)C(=O)Nc3cnc([C@H](O)CO)cn3)C2)c1F` fall in?
middle range

Which class does `CCCc1ccccc1OC1=CC(=O)N([C@@H](CC2CCCCC2)C(=O)Nc2ccn(CC(C)(C)O)n2)C1` fall in?
lower range

Which class does CC(C)(O)Cn1ccc(NC(=O)C(CC2CCOCC2)N2CC(Oc3c(F)cccc3F)=CC2=O)n1 (stereo not drawn) fall in?
middle range

Which class does `COC(=O)c1ccc(NC(=O)[C@H](CC(C)C)N2CC(Oc3c(F)cccc3F)=CC2=O)nc1` fall in?
middle range

Which class does `Cn1ccc(NC(=O)[C@H](CC2CCCCC2)N2CC(Oc3c(F)cccc3Cl)=CC2=O)n1` fall in?
lower range

Which class does `CCc1nsc(NC(=O)[C@H](CC(C)C)N2CC(Oc3ccccc3Cl)=CC2=O)n1` fall in?
upper range

Which class does COc1cccc(OC2=CC(=O)N(C(CC(C)(C)F)C(=O)Nc3ccn(CC(C)(C)O)n3)C2)c1Cl (stereo not drawn) fall in?
upper range

Which class does `COC(=O)c1ccc(NC(=O)[C@H](CC2CCCC2)N2CC(OC)=CC2=O)nc1` fall in?
upper range

Which class does `CC(C)(O)Cn1ccc(NC(=O)[C@H](CC2CCCCC2)N2CC(Oc3cccc(Br)c3)=CC2=O)n1` fall in?
lower range

Which class does CC(C)(O)Cn1ccc(NC(=O)[C@H](CC2CCCCC2)N2CC(OCC3COc4ccccc4O3)=CC2=O)n1 (stereo partly drawn) fall in?
upper range

---

Target: Recombinant human liver GK1 (GST-GK) (Homo sapiens, UniProt P35557)
Construct: made in house; host or cells: E. coli
Assay: In vitro glucokinase activity (G6PDH-coupled NADH assay)
Format: biochemical
Settings: 30° C., 5 mM D-glucose, 10% DMSO
Record yes (1) whenever SC1.5 (concentration of activator that produced a 50% increase in the activity of GK) is at 2 µM or higher; record no (0) when lower.

Given `CC(C)(O)Cn1ccc(NC(=O)[C@H](CC2CCCCC2)N2CC(Oc3ccccc3OCc3ccccc3)=CC2=O)n1` , state whether its SC1.5 (concentration of activator that produced a 50% increase in the activity of GK) is at least 2 µM.
no (0)

Given `CC(C)(O)Cn1ccc(NC(=O)[C@H](CC2CCCCC2)N2CC(Oc3c(F)cccc3F)=CC2=O)n1` , state whether its SC1.5 (concentration of activator that produced a 50% increase in the activity of GK) is at least 2 µM.
no (0)

Given `Cc1nsc(NC(=O)[C@H](CC(C)C)N2CC(Oc3ccccc3Cl)=CC2=O)n1` , state whether its SC1.5 (concentration of activator that produced a 50% increase in the activity of GK) is at least 2 µM.
yes (1)

Given `COC1=CC(=O)N([C@@H](CC2CCCC2)C(=O)Nc2ccn(CCNC(=O)OC(C)(C)C)n2)C1` , state whether its SC1.5 (concentration of activator that produced a 50% increase in the activity of GK) is at least 2 µM.
yes (1)

Given `CCOc1ccc(F)c(OC2=CC(=O)N([C@@H](CC(C)C)C(=O)Nc3cnc([C@H]4COC(C)(C)O4)cn3)C2)c1F` , state whether its SC1.5 (concentration of activator that produced a 50% increase in the activity of GK) is at least 2 µM.
no (0)

Given `O=C(Nc1ccn(C[C@@H](O)CO)n1)[C@H](CC1CCCC1)N1CC(Oc2c(F)cccc2F)=CC1=O` , state whether its SC1.5 (concentration of activator that produced a 50% increase in the activity of GK) is at least 2 µM.
no (0)

Given `CC(C)C[C@@H](C(=O)Nc1nc(N(C)C)ns1)N1CC(Oc2ccccc2Cl)=CC1=O` , state whether its SC1.5 (concentration of activator that produced a 50% increase in the activity of GK) is at least 2 µM.
yes (1)

Given `COC1=CC(=O)N([C@@H](CC2CCCC2)C(=O)Nc2ccc(C(=O)O)cn2)C1` , state whether its SC1.5 (concentration of activator that produced a 50% increase in the activity of GK) is at least 2 µM.
yes (1)

Given `COCCc1nsc(NC(=O)[C@H](CC(C)C)N2CC(Oc3ccccc3Cl)=CC2=O)n1` , state whether its SC1.5 (concentration of activator that produced a 50% increase in the activity of GK) is at least 2 µM.
no (0)

Given `CCC[C@@H](C(=O)Nc1ccn(C[C@@H](O)CO)n1)N1CC(Oc2c(F)cccc2F)=CC1=O` , state whether its SC1.5 (concentration of activator that produced a 50% increase in the activity of GK) is at least 2 µM.
no (0)

Given `O=C(Nc1ccn(C[C@@H](O)CO)n1)[C@H](CCO)N1CC(Oc2ccccc2Cl)=CC1=O` , state whether its SC1.5 (concentration of activator that produced a 50% increase in the activity of GK) is at least 2 µM.
yes (1)

Given `CC(C)(O)Cn1ccc(NC(=O)[C@H](CC2CCCCC2)N2CC(Oc3cccc(Cl)c3)=CC2=O)n1` , state whether its SC1.5 (concentration of activator that produced a 50% increase in the activity of GK) is at least 2 µM.
no (0)

Given `COc1ccccc1OC1=CC(=O)N([C@@H](CC2CCCCC2)C(=O)Nc2ccn(CC(C)(C)O)n2)C1` , state whether its SC1.5 (concentration of activator that produced a 50% increase in the activity of GK) is at least 2 µM.
no (0)

Given O=C(Nc1ccn(C[C@@H](O)CO)n1)C(CC(F)(F)F)N1CC(Oc2ccccc2Cl)=CC1=O (stereo partly drawn) , state whether its SC1.5 (concentration of activator that produced a 50% increase in the activity of GK) is at least 2 µM.
yes (1)
